targetOfAssay: T1, 4H2883-AA
T1 chain: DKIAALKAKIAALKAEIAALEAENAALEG
testMethodNotes: two-hybrid library CCmax;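 further: natural log of median RNA to DNA barcode read ratio; higher means stronger binding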
testConditions: mean of both orientations
assayEndpoint: interaction score

> print(dat)
                                     binder  reading
1  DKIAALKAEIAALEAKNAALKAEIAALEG [4H2617-AA]    -1.02
2  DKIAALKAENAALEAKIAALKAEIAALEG [4H2729-AA]     -1.1
3  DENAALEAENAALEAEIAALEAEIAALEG [4H1153-AA]    -1.14
4  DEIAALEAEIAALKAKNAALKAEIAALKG [4H122-AA]    0.209
5  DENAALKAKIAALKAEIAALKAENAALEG [4H1867-AA]   -0.898

A. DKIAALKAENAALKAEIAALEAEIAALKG [4H2754-AA]
B. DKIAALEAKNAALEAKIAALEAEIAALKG [4H2466-AA]
Lower interaction score: A or B ? Reply with the label of the item you choose. B

Sourced from paper PMC10397247
